All figures here come from BindingDB's records for patent US12017994.

// values below are reported pIC50
molecular target: Beta-glucuronidase (Escherichia coli (strain K12), UniProt P05804); assay: Biological Assay
Sequence (P05804 whole entry): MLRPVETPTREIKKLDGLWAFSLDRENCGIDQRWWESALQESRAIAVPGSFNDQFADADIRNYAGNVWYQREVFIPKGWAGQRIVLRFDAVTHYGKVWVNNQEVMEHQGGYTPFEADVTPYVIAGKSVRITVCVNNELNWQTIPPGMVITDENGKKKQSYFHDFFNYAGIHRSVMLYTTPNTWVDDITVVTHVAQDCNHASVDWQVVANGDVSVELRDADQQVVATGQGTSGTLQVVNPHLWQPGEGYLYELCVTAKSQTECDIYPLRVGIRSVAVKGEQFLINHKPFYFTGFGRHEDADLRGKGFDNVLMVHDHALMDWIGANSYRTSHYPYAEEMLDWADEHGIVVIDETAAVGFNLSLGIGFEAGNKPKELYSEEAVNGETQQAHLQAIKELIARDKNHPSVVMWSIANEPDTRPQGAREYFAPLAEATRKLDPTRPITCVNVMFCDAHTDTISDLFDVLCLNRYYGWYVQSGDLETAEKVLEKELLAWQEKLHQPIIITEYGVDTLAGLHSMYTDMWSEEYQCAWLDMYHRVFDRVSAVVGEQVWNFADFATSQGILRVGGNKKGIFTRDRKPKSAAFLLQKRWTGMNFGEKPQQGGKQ
pIC50: −log10 of the molar value.
Measured Quantity: pIC50

# Compound, Value Measured
measured = [
    ("Cc1cc(C)c2[nH]c(=O)c(CN(CCO)C(=O)Nc3ccc(F)cc3C#C[Si](C)(C)C)cc2c1 [US12017994, Ref #44']", 4.72),
    ("COc1cccc(NC(=O)N(CCO)Cc2cc3cc(C)cc(C)c3[nH]c2=O)c1 [US12017994, Ref #36']", 5.43),
]
